Ref: PubChem BioAssay AID720702

inhibition listing for selected compounds.
Biological target: Tyrosyl-DNA phosphodiesterase 2 (Homo sapiens)
Experiment: blockers of TDP2 phosphodiesterase activity – biochemical, epi absorbance, recombinant enzyme, primary screen (AID 720702);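 note: 0% = DMSO with enzyme and 100% = buffer with substrate but no TDP2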
Details: recombinant TDP2, T5PNP hydrolysis, p-nitrophenol absorbance 415 nm; at 12.8 µM; active compounds read high
The campaign covered roughly 370,000 compounds. About 1,200 (0.32%) were called active. The full list was thinned out, with actives kept by preference.
PROPERTY_NAME: inhibition (%)

{"COMPOUND": "N#C/C(C(=S)Nc1ccccc1)=C1/NN=C(N2CCOCC2)N1c1ccccc1", "SYSTEM": "Tyrosyl-DNA phosphodiesterase 2 (Homo sapiens)", "PROPERTY_NAME": "inhibition", "MEASURED_NUMBER": 10.7}
{"COMPOUND": "CCN(CC)CCCNC(=O)CCn1nc(-c2ccc(Cl)cc2)ccc1=O", "SYSTEM": "Tyrosyl-DNA phosphodiesterase 2 (Homo sapiens)", "PROPERTY_NAME": "inhibition", "MEASURED_NUMBER": -8.35}
{"COMPOUND": "CCCNC(=O)CCn1cc(-c2ccc(OC)cc2)nc1CCN", "SYSTEM": "Tyrosyl-DNA phosphodiesterase 2 (Homo sapiens)", "PROPERTY_NAME": "inhibition", "MEASURED_NUMBER": -1.08}
{"COMPOUND": "COc1ccc(S[C@]2(C(=O)N(C)C)CC(=O)N(c3ccc(OC)cc3)[C@@H]2c2ccc(OC)cc2)cc1", "SYSTEM": "Tyrosyl-DNA phosphodiesterase 2 (Homo sapiens)", "PROPERTY_NAME": "inhibition", "MEASURED_NUMBER": -13.2}
{"COMPOUND": "COc1ccccc1C1CC(=O)n2c(nc(-c3ccccc3)c2-c2ccccc2)S1 (stereo not given)", "SYSTEM": "Tyrosyl-DNA phosphodiesterase 2 (Homo sapiens)", "PROPERTY_NAME": "inhibition", "MEASURED_NUMBER": -1.89}
{"COMPOUND": "COc1ccccc1C1C(C#N)=C(N)Oc2c1c(-c1ccccc1)nn2-c1ccccc1 (stereo not given)", "SYSTEM": "Tyrosyl-DNA phosphodiesterase 2 (Homo sapiens)", "PROPERTY_NAME": "inhibition", "MEASURED_NUMBER": 68.7}
{"COMPOUND": "CCCCNC(=O)CCn1nc(-c2ccc(Cl)cc2)ccc1=O", "SYSTEM": "Tyrosyl-DNA phosphodiesterase 2 (Homo sapiens)", "PROPERTY_NAME": "inhibition", "MEASURED_NUMBER": 29.2}
{"COMPOUND": "COC(=O)c1ccc(C2C(Oc3ccccc3C)C(=O)N2CCc2ccc(OC)c(OC)c2)cc1 (stereo not given)", "SYSTEM": "Tyrosyl-DNA phosphodiesterase 2 (Homo sapiens)", "PROPERTY_NAME": "inhibition", "MEASURED_NUMBER": -12.5}
{"COMPOUND": "O=C(Cc1ccc(NC(=O)C2CCCN(C(=O)CCc3ccccc3)C2)cc1)Nc1ccc(C(=O)N2CCOCC2)cc1 (stereo not given)", "SYSTEM": "Tyrosyl-DNA phosphodiesterase 2 (Homo sapiens)", "PROPERTY_NAME": "inhibition", "MEASURED_NUMBER": -19.6}
{"COMPOUND": "O=C(NCc1ccccc1Cl)C1CCC(CNc2c(N3CCCCC3)c(=O)c2=O)CC1 (stereo not given)", "SYSTEM": "Tyrosyl-DNA phosphodiesterase 2 (Homo sapiens)", "PROPERTY_NAME": "inhibition", "MEASURED_NUMBER": 1.69}
{"COMPOUND": "COC(=O)[C@]12C[C@H](CC(=O)NCc3cccs3)C(=O)N(CCc3ccc(OC)c(OC)c3)C1=C[C@H](C(C)C)O[C@@H]2C1CC1", "SYSTEM": "Tyrosyl-DNA phosphodiesterase 2 (Homo sapiens)", "PROPERTY_NAME": "inhibition", "MEASURED_NUMBER": 3.66}
{"COMPOUND": "O=C(NC1CCC1)c1ccc(C#CC2CC2)cn1", "SYSTEM": "Tyrosyl-DNA phosphodiesterase 2 (Homo sapiens)", "PROPERTY_NAME": "inhibition", "MEASURED_NUMBER": 4.08}
{"COMPOUND": "Cc1[nH][nH]c(=O)c1C(c1ccc(-c2ccc(Cl)cc2)o1)c1c(C)[nH][nH]c1=O", "SYSTEM": "Tyrosyl-DNA phosphodiesterase 2 (Homo sapiens)", "PROPERTY_NAME": "inhibition", "MEASURED_NUMBER": 30}
{"COMPOUND": "COc1ccccc1NC(=O)C1CCCN(c2cc(C)nc3ncnn23)C1 (stereo not given)", "SYSTEM": "Tyrosyl-DNA phosphodiesterase 2 (Homo sapiens)", "PROPERTY_NAME": "inhibition", "MEASURED_NUMBER": 2.18}
{"COMPOUND": "COc1cc(CCC(=O)OCC(=O)Nc2cccc(S(N)(=O)=O)c2)cc(OC)c1OC", "SYSTEM": "Tyrosyl-DNA phosphodiesterase 2 (Homo sapiens)", "PROPERTY_NAME": "inhibition", "MEASURED_NUMBER": -0.17}
{"COMPOUND": "COC(=O)[C@]12C[C@H](CC(=O)N3CCOCC3)C(=O)N(Cc3ccc(Cl)cc3Cl)C1=C[C@H](C(C)C)O[C@@H]2C1CC1", "SYSTEM": "Tyrosyl-DNA phosphodiesterase 2 (Homo sapiens)", "PROPERTY_NAME": "inhibition", "MEASURED_NUMBER": -1.98}
{"COMPOUND": "Cc1cc(C)c(OCCN2CC(C)OC(C)C2)c(Br)c1 (stereo not given)", "SYSTEM": "Tyrosyl-DNA phosphodiesterase 2 (Homo sapiens)", "PROPERTY_NAME": "inhibition", "MEASURED_NUMBER": 30.7}
{"COMPOUND": "Cc1ccc(OCCCCN2CCCCC2)c(Br)c1", "SYSTEM": "Tyrosyl-DNA phosphodiesterase 2 (Homo sapiens)", "PROPERTY_NAME": "inhibition", "MEASURED_NUMBER": 5.22}
{"COMPOUND": "COc1cc(NC(=O)COC(=O)c2ccc([N+](=O)[O-])s2)cc(OC)c1OC", "SYSTEM": "Tyrosyl-DNA phosphodiesterase 2 (Homo sapiens)", "PROPERTY_NAME": "inhibition", "MEASURED_NUMBER": 31.6}
{"COMPOUND": "Cc1ccc(C2=CCN(C)C(=O)N2c2ccc(Cl)cc2)cc1", "SYSTEM": "Tyrosyl-DNA phosphodiesterase 2 (Homo sapiens)", "PROPERTY_NAME": "inhibition", "MEASURED_NUMBER": 8.05}
